Sourced from a melting point compilation (Tetko et al.; mined from patent text by program, amines drawn as free bases though some values may be those of a salt)

MEASUREMENT LABEL: melting point

MOLECULE | READOUT VALUE
COc1ccc(N2C(=O)C3=C(SCCO3)C2O)nn1 (stereo not drawn) | 165 °C
N=C(N)NNC1=NS(=O)(=O)c2ccccc21 | 252 to 253 °C
Cc1cccc(C)c1N1Cc2cnc(Nc3ccccc3)nc2N(c2cccc(CCN)c2)C1=O | 128 °C
Cc1ccc(C2COc3c(C)c(C)c(Br)c(C)c32)cc1 (stereo not drawn) | 108 to 109 °C
CC(C)(C)OC(=O)N[C@@H](Cc1ccccc1)C(=O)N[C@@H](Cc1ccc(O)c(I)c1)C(=O)OCc1ccccc1 | 81.6 to 82.7 °C
NCC#Cc1cnc2c(c1)N(Cc1cc(Cl)ccc1Cl)CCN2 | 183 °C
O=C(O)c1ccc2c(CCNCc3cccc(OCC(F)(F)F)c3)c[nH]c2c1 | 232 to 235 °C
O=[N+]([O-])c1cc(Cl)c2c(c1)C(F)(C(F)(F)F)C(F)(F)O2 (stereo not drawn) | 46 to 47 °C
CC(C)=NNc1ccnc2c(NC(=O)c3c(Cl)cccc3Cl)cc(C)cc12 | 242 to 245 °C
COC(=O)c1c(C(F)F)nc(C(F)(F)F)c(C(C#N)=C2OCCO2)c1CC(C)C | 121 to 122 °C
Cc1ccc2c(c1)c(N1CCN(C(=O)c3cccs3)CC1)c(C#N)c(=O)n2C | 214 °C
C[C@]12CC[C@H]3[C@@H](CCC4=CC(=O)CC[C@@]43COC(=O)C34CC5CC(CC(C5)C3)C4)[C@@H]1CCC2=O | 161 to 163 °C
CCOC(=O)/C=C(C)/C(F)=C/C=C(\C)C=O | 70 to 74 °C
N#Cc1ccc(CCn2ccn([C@H]3CCc4c(F)cc(F)cc4C3)c2=S)cc1 | 130 to 133 °C
COc1ccc(CCNC(=O)CCCCC(=O)NCCc2ccc(OC)c(OC)c2Cl)c(Cl)c1OC | 159 to 161 °C
CNCCc1ccc2[nH]nc(S(=O)(=O)c3ccccc3)c2c1 | 42 °C
Clc1cc(-c2ccccc2)nc(Cl)n1 | 80 to 85 °C
CCCOCCOC(=O)C1=C(C)NC(C)=C(S(=O)(=O)N(C)CCOC)C1c1cccc([N+](=O)[O-])c1 (stereo not drawn) | 67 to 70 °C
CCOC(=O)c1c(CN(CC)CC)nc2sc3c(c2c1-c1ccc(OC)c(OC)c1)CCN=C3 | 118 to 120 °C
COc1cc2c(cc1OC)CN(c1nc(N)c3cc(OC)c(OC)c(OC)c3n1)CC2 | 204 °C
CC(=O)N[C@@H](CSc1ccccc1[N+](=O)[O-])C(=O)O | 175 to 176 °C
CCOc1cccc(NC(=O)NS(=O)(=O)c2ccc(C)cc2)n1 | 197 to 199 °C
Brc1ccc2c(c1)N=C(NCc1cccnc1)c1ccccc1N2 | 152 to 155 °C
